Data provenance is ChEMBL document CHEMBL1201862.

# Tested on: NCI/ADR-RES
# MEASUREMENT_DESCRIPTION: NCI tumour cell line growth inhibition, 48 h
Activity calls are given as the source filed them. No stated cut-off is given here; in the data, active = GI50 up to about 1.1 µM and inactive = higher.
Select the matching outcome among active, inactive

Exercise: Could you check what this test reported for O=C(CC(C(=O)c1cccs1)c1ccc2c(c1)OCO2)c1ccccc1 (stereo unspecified) ?
Solution: inactive

Exercise: Could you check what this test reported for CN(C)C(=O)Oc1ccc(C(=S)Nc2ccccc2)cc1Br ?
Solution: inactive

Exercise: Could you check what this test reported for CS(=O)(=O)OCC1CN(S(C)(=O)=O)c2cc(O)ccc21 (stereo unspecified) ?
Solution: inactive

Exercise: Could you check what this test reported for COc1ccc(OC)c2c(Nc3ccc(S(=O)(=O)O)c4cc(S(=O)(=O)O)cc(S(=O)(=O)O)c34)cc(C)nc12 ?
Solution: inactive

Exercise: Could you check what this test reported for CC[C@]12C=CCN3CCC4(c5cc([C@@]6(C(=O)OC)CC7CN(CCc8c6[nH]c6ccccc86)CC6CCCCC67)c(OC)cc5N(C)C4[C@](O)(C(=O)OC)C1OC(C)=O)[C@@H]32 (stereo partly specified) ?
Solution: active

Exercise: Could you check what this test reported for O=CNCNCCO ?
Solution: inactive

Exercise: Could you check what this test reported for C/C(CC/C(C)=N/O)=N\O ?
Solution: inactive

Exercise: Could you check what this test reported for CC(C)=CCC[C@@H](C)C1=C(Nc2ccccc2F)C(=O)C(C)=C(O)C1=O ?
Solution: inactive

Exercise: Could you check what this test reported for Cc1ccc2nc3c(=O)[nH]c(=O)nc-3n(C)c2c1C ?
Solution: inactive

Exercise: Could you check what this test reported for CC[C@@]12C=CC(=S)N(CCSc3ccccc3)[C@@H]1c1c(n(S(=O)(=O)c3ccc(OC)cc3)c3ccccc13)CC2 ?
Solution: inactive

Exercise: Could you check what this test reported for CCN(CC)Cc1ccc(C(=S)Nc2ccc(C)cc2)s1 ?
Solution: inactive

====

# System: A549
# MEASUREMENT_DESCRIPTION: NCI tumour cell line growth inhibition, 48 h
Active and inactive are the calls of the source. Cut-off read from the data, not from the text of the source: active = GI50 up to about 1.1 µM and inactive = higher. Where a SMILES comes first, the peptide text is derived from it. The star is where a group is joined. Cbz = O=C(OCc1ccccc1)*
Select the matching outcome among class 1 (active), class 0 (inactive)

Exercise: Could you check what this test reported for COc1c(Br)cc(Br)c(OC)c1-c1[nH]c(Br)c(Br)c1Br ?
Solution: class 0

Exercise: Could you check what this test reported for O=C(/C=C/c1ccccc1O)c1ccc([N+](=O)[O-])cc1 ?
Solution: class 0

Exercise: Could you check what this test reported for CCOC(=O)C(CC(=O)OC)NC(=O)C(CC(=O)OC)NC(=O)C(CC(=O)OC)NC(=O)C(CC(=O)OC)NC(=O)OCc1ccccc1 (stereo not drawn) (Cbz-D(OMe)D(OMe)D(OMe)D(OMe)-OEt; configuration not given here) ?
Solution: class 0

Exercise: Could you check what this test reported for CN1CCN(C2=C(Cl)C3(OCCS3)C(F)(F)C2(F)F)CC1 (stereo not drawn) ?
Solution: class 0

Exercise: Could you check what this test reported for NC(=O)c1ccccc1NC(=O)C(=O)C(c1cnc2ccc([N+](=O)[O-])cc2n1)[N+](=O)[O-] (stereo not drawn) ?
Solution: class 0

Exercise: Could you check what this test reported for CC(C)Cc1ccc(C(C)/C=C2\CCC(CN(C)C)C2=O)cc1 (stereo not drawn) ?
Solution: class 0

Exercise: Could you check what this test reported for CC12CCC(C(Nc3cc(C(F)(F)F)cc(C(F)(F)F)c3)C1=O)C2(C)C (stereo not drawn) ?
Solution: class 0

Exercise: Could you check what this test reported for O=C(CCc1cc(-c2ccccc2)nc(S)n1)N(Cc1ccccc1)Cc1ccccc1 ?
Solution: class 0

Exercise: Could you check what this test reported for CSc1c(C#N)c(O)n(-c2ccc(C)cc2)c(=O)c1C(C)=O ?
Solution: class 0

Exercise: Could you check what this test reported for COC(=O)c1ccc(NC(=O)c2cc(OC)c(OC)c(OC)c2)cc1 ?
Solution: class 0

Exercise: Could you check what this test reported for CC1=NC(=Cc2cccc(Cl)c2)C(=O)N1n1c(-c2ccccc2)nc2ccccc2c1=O ?
Solution: class 0

Exercise: Could you check what this test reported for O=CNCNCCO ?
Solution: class 0

Exercise: Could you check what this test reported for CCOc1cc2c(cc1O)CC[C@@H]1[C@@H]2CC[C@]2(C)C(N)CC[C@@H]12 (stereo partly drawn) ?
Solution: class 0

Exercise: Could you check what this test reported for BrP(NC1CCCCCC1)(c1ccccc1)(c1ccccc1)c1ccccc1 ?
Solution: class 0

Exercise: Could you check what this test reported for COc1ccc(C(=O)N2CCN(c3ccc4c(c3)OCC(=O)N4)CC2)cc1OC ?
Solution: class 0

Exercise: Could you check what this test reported for Fc1ccc(NC(=S)SCc2ccc3c(c2)OCO3)cc1F ?
Solution: class 0

Exercise: Could you check what this test reported for CNc1nc(C(N)=O)c(N)s1 ?
Solution: class 0

Exercise: Could you check what this test reported for CNc1nc(N)cc(O)n1 ?
Solution: class 0

Exercise: Could you check what this test reported for O=C1[C@@H]2C[C@@H](O)CN2C(=O)c2ccccc2N1CCCO ?
Solution: class 0

Exercise: Could you check what this test reported for CCCCCCc1cc2cc(C(=O)Nc3nc(C45CC6CC(CC(C6)C4)C5)cs3)c(=O)oc2cc1O ?
Solution: class 0

Exercise: Could you check what this test reported for Cc1ccccc1N1C(=O)C2C=CC(n3[nH]c(=O)n(Cc4ccccc4)c3=O)CC2C1=O (stereo not drawn) ?
Solution: class 0

Exercise: Could you check what this test reported for CCN(CC)Cc1ccc(C(=S)Nc2ccc(C)cc2)s1 ?
Solution: class 0

Exercise: Could you check what this test reported for CC1(c2nc3ccccc3[nH]2)CCC(C#N)C(C)(C)O1 (stereo not drawn) ?
Solution: class 0

Exercise: Could you check what this test reported for CCCCCCCCCCCC(=O)OCC(C[As](=O)(O)O)OC(=O)CCCCCCCCCCC (stereo not drawn) ?
Solution: class 0

Exercise: Could you check what this test reported for Nc1c([N+](=O)[O-])cc2c3c(cccc13)CC2 ?
Solution: class 0

Exercise: Could you check what this test reported for O=C(CC(C(=O)c1cccs1)c1ccc2c(c1)OCO2)c1ccccc1 (stereo not drawn) ?
Solution: class 0

Exercise: Could you check what this test reported for COc1ccc(/N=C\c2cc(OC)c(OC)c(OC)c2)cc1 ?
Solution: class 0

Exercise: Could you check what this test reported for O=C(O)c1oc(C(=O)O)c(C(=O)O)c1C(=O)O ?
Solution: class 0

Exercise: Could you check what this test reported for CC(C)OP(=O)(CN(C)/C(F)=N\C(F)(F)F)OC(C)C ?
Solution: class 0

Exercise: Could you check what this test reported for CCCOP1(=O)C=C(O)C(Cl)=C(C)C1 (stereo not drawn) ?
Solution: class 0

Exercise: Could you check what this test reported for CC[C@]12C=CCN3CCC4(c5cc([C@@]6(C(=O)OC)CC7CN(CCc8c6[nH]c6ccccc86)CC6CCCCC67)c(OC)cc5N(C)C4[C@](O)(C(=O)OC)C1OC(C)=O)[C@@H]32 (stereo partly drawn) ?
Solution: class 1

Exercise: Could you check what this test reported for Cc1ccc(NC(=O)/C(=N\NC(N)=O)c2c(O)c3ccccc3[nH]c2=O)cc1 ?
Solution: class 0

Exercise: Could you check what this test reported for C=C(C)C(=O)OC1C[C@H](COC(C)=O)C2CC=C(CO)C2C2OC(=O)C(=C)[C@H]12 (stereo partly drawn) ?
Solution: class 0

Exercise: Could you check what this test reported for COc1ccc(C2C3C(=O)C=CC(=O)C3[C@@H]2C)cc1OC (stereo partly drawn) ?
Solution: class 0

Exercise: Could you check what this test reported for N#CCCCC[N+]12CN3CN(CN(C3)C1)C2 ?
Solution: class 0

Exercise: Could you check what this test reported for C=Cc1cnc([N+](=O)[O-])n1C ?
Solution: class 0

Exercise: Could you check what this test reported for C=C1Oc2nc3ccccc3c(=O)n2C1(C)C ?
Solution: class 0

Exercise: Could you check what this test reported for CCOC(=O)c1oc2c(OC)ccc3c2c1CCC3 ?
Solution: class 0

Exercise: Could you check what this test reported for COC(=O)Cc1c([C@H]2[C@H](CC(=O)OC)c3ccccc3N2C(=O)C(F)(F)F)[nH]c2ccccc12 ?
Solution: class 0

Exercise: Could you check what this test reported for C/C(CC/C(C)=N/O)=N\O ?
Solution: class 0

Exercise: Could you check what this test reported for COc1cc(CO)c(CC(=O)NCCCc2ccccc2)cc1OC ?
Solution: class 0

Exercise: Could you check what this test reported for O=C1N=NC(=O)N1c1cc(C(F)(F)F)cc(C(F)(F)F)c1 ?
Solution: class 0

Exercise: Could you check what this test reported for COc1cc(C2c3cc4c(cc3OC(NNC(N)=O)C2C)OCO4)cc(OC)c1OC (stereo not drawn) ?
Solution: class 1
